The reported measurements were obtained from ChEMBL document CHEMBL1141302.

Field: pIC50. Provide a value for each of the compounds that follow.
Note: pIC50 values are expressed as the negative base-10 logarithm of concentration in M.

The compound COc1cc(O)ccc1CCC(c1ccc(O)cc1)c1c(/C=C/c2ccc(O)cc2)cc(O)cc1OC (stereo not drawn) [COCHINCHINENENE C] , when measured on Prothrombin (Homo sapiens, UniProt P00734), yielded pIC50 of 4.57

The compound COc1cc(OC)c(C(CCc2ccc(O)cc2OC)c2ccc(O)cc2)cc1CCC(=O)c1ccc(O)cc1 (stereo not drawn) [COCHINCHINENIN B] , when measured on Prothrombin (Homo sapiens, UniProt P00734), yielded pIC50 of 4.91

The compound COc1cc(O)c(C(CCc2ccc(O)cc2OC)c2ccc(O)cc2)cc1CCC(=O)c1ccc(O)cc1 (stereo not drawn) , when measured on Prothrombin (Homo sapiens, UniProt P00734), yielded pIC50 of 4.58

The compound COc1ccc(C(CCc2ccc(O)cc2OC)c2c(O)cc(OC)cc2/C=C/c2ccc(O)cc2)cc1 (stereo not drawn) [COCHINCHINENENE B] , when measured on Prothrombin (Homo sapiens, UniProt P00734), yielded pIC50 of 4.75

The compound COc1cc(O)ccc1CCC(c1ccc(O)cc1)c1cc2c(c(C)c1O)O[C@@H](c1ccc(O)cc1)CC2 (stereo partly drawn) , when measured on Prothrombin (Homo sapiens, UniProt P00734), yielded pIC50 of 4.67

---

# test-target: Dipeptidyl peptidase 4 (Homo sapiens)
# Sequence (P27487 whole entry): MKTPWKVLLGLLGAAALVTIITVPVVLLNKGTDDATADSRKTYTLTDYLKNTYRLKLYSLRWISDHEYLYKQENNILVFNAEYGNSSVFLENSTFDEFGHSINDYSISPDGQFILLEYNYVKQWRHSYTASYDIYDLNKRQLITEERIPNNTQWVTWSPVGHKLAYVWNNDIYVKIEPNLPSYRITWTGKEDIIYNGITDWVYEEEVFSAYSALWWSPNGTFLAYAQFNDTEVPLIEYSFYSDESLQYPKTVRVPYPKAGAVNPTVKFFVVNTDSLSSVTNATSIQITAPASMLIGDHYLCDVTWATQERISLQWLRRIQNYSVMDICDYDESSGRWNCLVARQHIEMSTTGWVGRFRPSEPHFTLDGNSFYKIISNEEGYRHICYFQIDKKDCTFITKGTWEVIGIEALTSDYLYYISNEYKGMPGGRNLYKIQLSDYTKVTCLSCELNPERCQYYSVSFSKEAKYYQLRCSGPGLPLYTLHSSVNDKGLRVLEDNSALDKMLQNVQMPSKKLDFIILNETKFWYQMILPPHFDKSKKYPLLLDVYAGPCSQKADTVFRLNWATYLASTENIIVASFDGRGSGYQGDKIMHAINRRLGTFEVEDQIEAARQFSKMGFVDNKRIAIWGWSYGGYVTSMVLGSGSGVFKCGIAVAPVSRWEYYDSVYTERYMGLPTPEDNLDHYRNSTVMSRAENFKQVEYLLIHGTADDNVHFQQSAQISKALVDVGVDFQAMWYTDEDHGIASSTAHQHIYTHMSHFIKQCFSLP
# measurement-notes: Inhibition of human recombinant DPP4
pIC50: −log10 of the molar value.
attribute-measured: pIC50

So for COc1ccc(C(CCc2ccc(O)cc2OC)c2c(O)cc(OC)cc2/C=C/c2ccc(O)cc2)cc1 (stereo not drawn) , the logged pIC50 turned out to be < 4.41

So for COc1cc(OC)c(C(CCc2ccc(O)cc2OC)c2ccc(O)cc2)cc1CCC(=O)c1ccc(O)cc1 (stereo not drawn) , the logged pIC50 turned out to be < 4.43

So for COc1cc(O)ccc1CCC(c1ccc(O)cc1)c1cc2c(c(C)c1O)O[C@@H](c1ccc(O)cc1)CC2 (stereo partly drawn) , the logged pIC50 turned out to be < 4.41

So for COc1cc(O)ccc1CCC(c1ccc(O)cc1)c1c(/C=C/c2ccc(O)cc2)cc(O)cc1OC (stereo not drawn) , the logged pIC50 turned out to be < 4.40

So for COc1cc(O)ccc1CCC(c1ccc(O)cc1)c1c(O)cc(O)cc1/C=C/c1ccc(O)cc1 (stereo not drawn) , the logged pIC50 turned out to be < 4.38

So for COc1ccc(C(CCc2ccc(O)cc2OC)c2cc(CCC(=O)c3ccc(O)cc3)c(OC)cc2O)cc1 (stereo not drawn) , the logged pIC50 turned out to be < 4.43

So for COc1cc(O)c(C(CCc2ccc(O)cc2OC)c2ccc(O)cc2)cc1CCC(=O)c1ccc(O)cc1 (stereo not drawn) , the logged pIC50 turned out to be < 4.43

So for COc1ccc(C(CCc2ccc(O)cc2OC)c2c(OC)cc(/C=C/c3ccc(O)cc3)cc2OC)cc1 (stereo not drawn) , the logged pIC50 turned out to be < 4.43

---

pIC50: −log10 of the molar value.
Consider molecules characterized by their pIC50 with Prothrombin (Homo sapiens).

So for COc1ccc(C(CCc2ccc(O)cc2OC)c2c(OC)cc(/C=C/c3ccc(O)cc3)cc2OC)cc1 (stereo not drawn) , the logged pIC50 turned out to be < 5.02

So for COc1ccc(C(CCc2ccc(O)cc2OC)c2cc(CCC(=O)c3ccc(O)cc3)c(OC)cc2O)cc1 (stereo not drawn) , the logged pIC50 turned out to be < 5.04

So for COc1cc(O)ccc1CCC(c1ccc(O)cc1)c1c(O)cc(O)cc1/C=C/c1ccc(O)cc1 (stereo not drawn) , the logged pIC50 turned out to be < 4.38
